Hello, the source for this data is patent US20260209325A1, in case you need it.

test target: human pro-myostatin (human, UniProt O14793 24-375, biotinylated (in the SPR assay))
assay method text: cell-based or functional assay
assay metric: IC50 (nM) Pro + Furin
Only the number, expressed in nM, is required.

# annotated cases, reported IC50 (nM) Pro + Furin shown
1. Ab104 (antibody, human IgG4 S228P, kappa, V domains shown) VH: EVQLVESGGGLVQPGGSLRLSCAASGSAFSSYGMSWVRQAPGKGLELVASINSNGGSTYYPDSVKGRFTISRDNAKNSLYLQMNSLRAEDTAVYYCARDLLVKFLSWSHYYGMDVWGQGTTVTVSS VL: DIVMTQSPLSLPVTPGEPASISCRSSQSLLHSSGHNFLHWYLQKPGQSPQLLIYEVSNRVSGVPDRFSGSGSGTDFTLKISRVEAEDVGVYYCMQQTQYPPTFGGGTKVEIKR : 0.363
2. Ab129 (antibody, human IgG4 S228P, kappa, V domains shown) VH: QVQLVQSGAEVKKPGASVKVSCKVSGFNYPRSAIHWVRQAPGKGLEWMGGINPSGEATIYAQKFQGRVTMTEDTSTDTAYMELSSLKSEDTAVYYCARDSSPQWLVTAGVYFYGMDVWGQGTTVTVSS VL: DIQMTQSPSSVSASVGDRVTITCRASQSISNWLAWYQQKPGKAPKLLIYHASTLQSGVPSRFSGSGSGTDFTLTISSLQPEDFANYYCQQYSSTPWTFGGGTKVEIKR : 4.31

Q) Please look up its IC50 (nM) Pro + Furin: Ab114 (antibody, human IgG4 S228P, kappa, V domains shown) VH: QVQLVQSGAEVKKPGASVKVSCKVSGGTFRSYTIHWVRQAPGKGLEWMGGMNPSSGHTIYAQKFQGRVTMTEDTSTDTAYMELSSLKSEDTAVYYCARGLDYGEGYYYYGMDVWGQGTTVTVSS VL: DIQMTQSPSSVSASVGDRVTITCRASQGISESLAWYQQKPGKAPKLLIYSASSLESGVPSRFSGSGSGTDFTLTISSLQPEDFANYYCQQGYSSPPYTFGGGTKVEIKR
A) 2.8
